Biological target: human adenosine A2A receptor (A2aR) (human, UniProt P29274 1-412)
Sequence (P29274 whole entry): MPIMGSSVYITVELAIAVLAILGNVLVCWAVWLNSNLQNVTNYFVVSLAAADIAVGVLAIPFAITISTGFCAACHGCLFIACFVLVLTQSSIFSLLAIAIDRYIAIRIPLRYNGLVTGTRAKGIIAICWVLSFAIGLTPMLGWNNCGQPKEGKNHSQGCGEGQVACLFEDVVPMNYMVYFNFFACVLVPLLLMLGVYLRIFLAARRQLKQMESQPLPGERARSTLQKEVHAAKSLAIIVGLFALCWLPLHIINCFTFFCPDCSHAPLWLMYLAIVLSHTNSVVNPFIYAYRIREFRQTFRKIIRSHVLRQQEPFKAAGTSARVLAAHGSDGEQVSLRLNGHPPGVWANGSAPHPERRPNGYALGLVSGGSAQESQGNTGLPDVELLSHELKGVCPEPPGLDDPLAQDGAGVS
Assay: cell-based or functional assay
Would you mind telling me the reported IC50 of blocking activity, cAMP-Glo, 300 nM NECA, HEK293-hA2aR cells, supernatant of each entry?
Numbers only, in nM.

Hu3F8-H6/Hu3F8-L4 (antibody, human IgG1, V domains shown, Human IgG1 FES (L234F, L235E, P331S) and human Ig kappa constant domains) VH: EVQLVQSGAEVKKPGESLRISCKASGFTFTRYWMNWVRQMPGKGLEWIGRIDPSDSETHYNHKFWGHATLSVDKSSSTVYLQWSSLKASDTAMYYCLRSLYGKGDYWGQGTTVTVSS VL: DIVMTQSPLSLPVTPGEPASISCRSSQSIVHSNGNTYLEWYLQKPGQSPQLLIYKVSNRFSGVPDRFSGSGSGTDFTLKISRVEAEDVGVYYCYQGSHVPLTFGGGTKVEIK
2.3
Hu3F8-H1/Hu3F8-L3 (antibody, human IgG1, V domains shown, Human IgG1 FES (L234F, L235E, P331S) and human Ig kappa constant domains) VH: QVQLVQSGAEVKKPGASVKVSCKASGFTFTRYWMNWVRQAPGQGLEWMGRIDPSDSETHYNHKFWGRVTMTRDTSTSTVYMELSSLRSEDTAVYYCLRSLYGKGDYWGQGTTVTVSS VL: DVVMTQSPLSLPVTLGQPASISCRSSQSIVHSNGNTYLEWYQQRPGQSPRLLIYKVSNRFSGVPDRFSGSGSGTDFTLKISRVEAEDVGVYYCYQGSHVPLTFGGGTKVEIK
1.5
Hu3F8-H4/Hu3F8-L3 (antibody, human IgG1, V domains shown, Human IgG1 FES (L234F, L235E, P331S) and human Ig kappa constant domains; also called Hu3F8 VH4/VL3) VH: EVQLVQSGAEVKKPGASVKVSCKASGFTFTRYWMNWVRQAPGQGLEWIGRIDPSDSETHYNHKFWGRATLTVDKSTSTVYMELSSLRSEDTAVYYCLRSLYGKGDYWGQGTTVTVSS VL: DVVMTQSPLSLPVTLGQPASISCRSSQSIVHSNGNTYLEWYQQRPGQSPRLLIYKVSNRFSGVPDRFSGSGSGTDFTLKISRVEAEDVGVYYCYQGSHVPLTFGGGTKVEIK
0.7

Could you tell me IC50 of blocking activity, cAMP-Glo, 300 nM NECA, HEK293-hA2aR cells, supernatant for each of these binders? They are listed below.
1. Hu3F8-H5/Hu3F8-L5 (antibody, human IgG1, V domains shown, Human IgG1 FES (L234F, L235E, P331S) and human Ig kappa constant domains) VH: EVQLVQSGAEVKKPGASVKVSCKASGFTFTRYWMNWVRQAPGQGLEWIGRIDPSDSETHYNAKFWGRATLTVDKSTSTVYMELSSLRSEDTAVYYCLRSLYGKGDYWGQGTTVTVSS VL: DVVMTQSPLSLPVTPGEPASISCRSSQSIVHSNGNTYLEWYLQKPGQSPQLLIYKVSNRFSGVPDRFSGSGSGTDFTLKISRVEAEDVGVYYCYQGSHVPLTFGGGTKVEIK
2. Hu3F8-H3/Hu3F8-L5 (antibody, human IgG1, V domains shown, Human IgG1 FES (L234F, L235E, P331S) and human Ig kappa constant domains; also called Hu3F8 VH3/VL5) VH: EVQLVQSGAEVKKPGASVKVSCKASGFTFTRYWMNWVRQAPGQGLEWIGRIDPSDSETHYNHKFWGRATLTVDTSTSTVYMELSSLRSEDTAVYYCLRSLYGKGDYWGQGTTVTVSS VL: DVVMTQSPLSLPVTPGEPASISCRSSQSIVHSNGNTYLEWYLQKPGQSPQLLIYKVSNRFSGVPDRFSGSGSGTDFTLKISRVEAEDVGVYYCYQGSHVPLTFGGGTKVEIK
3. Hu3F8-H6/Hu3F8-L3 (antibody, human IgG1, V domains shown, Human IgG1 FES (L234F, L235E, P331S) and human Ig kappa constant domains; also called Hu3F8 VH6/VL3) VH: EVQLVQSGAEVKKPGESLRISCKASGFTFTRYWMNWVRQMPGKGLEWIGRIDPSDSETHYNHKFWGHATLSVDKSSSTVYLQWSSLKASDTAMYYCLRSLYGKGDYWGQGTTVTVSS VL: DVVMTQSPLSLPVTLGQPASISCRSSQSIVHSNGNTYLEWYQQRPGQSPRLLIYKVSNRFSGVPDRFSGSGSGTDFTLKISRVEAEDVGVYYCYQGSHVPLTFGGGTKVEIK

Reply text:
1. 1.6
2. 1.5
3. 1.2
